Hello, the source for this data is the supplement of paper PMC8728848, in case you need it.

I'd appreciate it if you could supply glycan array binding signal (z-score) values for the items below.
Biological target: Gal6S(b1-4)Glc6S
Test: glycan array binding signal (z-score within array); higher = stronger binding
Conditions: glycan notation: IUPAC condensed, linker removed
Shown is part of a subset that was picked to be rich in the strongest signals.
Note: the reply should be a number with no unit written.

**Query** Reported glycan array binding signal (z-score), binder Epa15 (Candida glabrata) (protein) MGSSHHHHHHSSGLVPRGSHMASDPTTFPLGCSPEFTKTKKGLSMELYRYDYLPPGSYPCWDSAYLNPSYPRTGYKAKKLIATVDGVSGDINFKFNPKFGCKAIPDYLPSNFNYHEPITITNFTMILYGYFMPKTTAFHTFYVTADDLLFMNFGAGNAFDCCRREETADKFGNYAAYSVWGKKSLKNELTVYLHTGVYYPIRLFYNNRDYIAQLDIRFKTEHSNAIITNFTDYFYSVDDSSLGCPGLI : ____
**Result** 4.58

**Query** Given the entry CBM32-4 (Clostridium perfringens), P26831 (protein) MGSSHHHHHHSSGLVPRGSHMASVYEPSLVDAYVGDDGAKKAVDGDLKTRVKFLGAPSTGDTIVYDLGQEILVDNLKYVVLDTEVDHVRDGKIQLSLDGETWTDAINIGDGVENGVDDMFSTPLKNGYKHGNQSGGIVPIDSAYVEGDNLNQKARYVRILFTAPYRHRWTVINELMINNGEYIPTVNDPT , report its measured glycan array binding signal (z-score).
**Result** 4.96

**Query** So what does the record say about glycan array binding signal (z-score) for NakA (Mycobacterium tuberculosum) (protein) SVVKPTKVTVFSPDGGADNPGEADLAIDGNPATSWKTDIYTDPVPFPSFKNGVGLMLQLPQATVVGTVAIDVASTGTKVEIRSASTPTPATLEDTAVLTSATALRPGHNTISVEAAAPTSNLLVWISTLGTTDGKSQADISEITIYAASD ?
**Result** -0.213
